biological target: c-Met (Homo sapiens); construct: Kinases are expressed as either kinase domains or full length constructs; made in house; test: Kinase inhibition assay (33P transfer), c-Met; type: biochemical; settings: Table 2, kinase inhibition class; read-out: Met-1
Sequence (P08581 25-1390): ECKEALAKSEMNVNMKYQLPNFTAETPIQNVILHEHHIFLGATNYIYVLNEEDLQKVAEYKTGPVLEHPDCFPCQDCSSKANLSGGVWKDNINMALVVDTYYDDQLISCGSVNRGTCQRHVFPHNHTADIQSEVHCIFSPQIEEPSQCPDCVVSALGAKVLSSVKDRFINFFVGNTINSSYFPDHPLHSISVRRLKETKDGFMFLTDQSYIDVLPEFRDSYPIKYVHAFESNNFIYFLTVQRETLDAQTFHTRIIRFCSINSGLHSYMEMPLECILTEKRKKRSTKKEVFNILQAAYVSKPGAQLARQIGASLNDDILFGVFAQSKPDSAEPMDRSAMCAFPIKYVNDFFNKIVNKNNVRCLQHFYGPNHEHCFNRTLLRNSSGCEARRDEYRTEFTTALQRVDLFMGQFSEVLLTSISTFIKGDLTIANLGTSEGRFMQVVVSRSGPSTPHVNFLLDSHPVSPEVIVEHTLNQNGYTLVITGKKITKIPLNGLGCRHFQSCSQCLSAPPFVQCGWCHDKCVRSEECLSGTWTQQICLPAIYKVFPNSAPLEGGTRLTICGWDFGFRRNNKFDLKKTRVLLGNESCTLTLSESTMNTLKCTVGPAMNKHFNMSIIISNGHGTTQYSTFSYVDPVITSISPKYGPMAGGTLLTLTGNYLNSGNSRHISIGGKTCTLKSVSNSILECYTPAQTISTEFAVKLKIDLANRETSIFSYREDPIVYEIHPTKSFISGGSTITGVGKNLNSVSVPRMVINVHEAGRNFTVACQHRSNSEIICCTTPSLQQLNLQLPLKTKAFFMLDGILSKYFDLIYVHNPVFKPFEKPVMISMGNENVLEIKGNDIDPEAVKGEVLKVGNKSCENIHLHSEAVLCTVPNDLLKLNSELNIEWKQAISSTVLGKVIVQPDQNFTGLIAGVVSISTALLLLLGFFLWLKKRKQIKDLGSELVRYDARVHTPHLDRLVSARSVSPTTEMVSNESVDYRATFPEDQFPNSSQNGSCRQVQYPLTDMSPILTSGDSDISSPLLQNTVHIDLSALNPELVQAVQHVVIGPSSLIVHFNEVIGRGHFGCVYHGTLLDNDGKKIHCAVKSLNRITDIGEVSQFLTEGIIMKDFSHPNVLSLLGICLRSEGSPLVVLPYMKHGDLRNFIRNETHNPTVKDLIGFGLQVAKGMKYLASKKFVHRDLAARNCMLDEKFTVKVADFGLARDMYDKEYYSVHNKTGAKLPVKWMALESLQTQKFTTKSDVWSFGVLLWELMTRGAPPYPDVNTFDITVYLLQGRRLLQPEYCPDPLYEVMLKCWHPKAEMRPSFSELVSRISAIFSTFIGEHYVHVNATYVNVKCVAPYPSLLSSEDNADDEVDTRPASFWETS
pIC50: −log10 of the molar value.
quantity: pIC50

Reference set (3 entries):
molecule="COc1cc(Nc2ncnc(Nc3ccc(C)cc3)n2)cc(OC)c1OC [Compound 930]" quantity=pIC50 recordedresult="4.91 to 5.02"
molecule="COc1cc(Nc2ncnc(Nc3[nH]ncc3-c3ccccc3)n2)cc(OC)c1OC [Compound 369]" quantity=pIC50 recordedresult="< 4.97"
molecule="COc1cc(Nc2ncnc(-c3ccnc(NCCCO)c3)n2)cc(OC)c1OC [Compound 180]" quantity=pIC50 recordedresult="< 4.96"

State its pIC50: COc1cc(Nc2ncnc(N)n2)cc(OC)c1OC [Compound 925] < 4.79

State its pIC50: COc1ccc(Nc2ncnc(Nc3ccc(Br)cc3F)n2)cc1OC [Compound 117] 4.97 to 5.08

====

target: Kdr (Homo sapiens); construct: Kinases are expressed as either kinase domains or full length constructs; made in house; test: Kinase inhibition assay (33P transfer), Kdr; type: biochemical; settings: Table 3, class symbols; read-out: KDR-1
Sequence (P35968 20-1356, species assumed): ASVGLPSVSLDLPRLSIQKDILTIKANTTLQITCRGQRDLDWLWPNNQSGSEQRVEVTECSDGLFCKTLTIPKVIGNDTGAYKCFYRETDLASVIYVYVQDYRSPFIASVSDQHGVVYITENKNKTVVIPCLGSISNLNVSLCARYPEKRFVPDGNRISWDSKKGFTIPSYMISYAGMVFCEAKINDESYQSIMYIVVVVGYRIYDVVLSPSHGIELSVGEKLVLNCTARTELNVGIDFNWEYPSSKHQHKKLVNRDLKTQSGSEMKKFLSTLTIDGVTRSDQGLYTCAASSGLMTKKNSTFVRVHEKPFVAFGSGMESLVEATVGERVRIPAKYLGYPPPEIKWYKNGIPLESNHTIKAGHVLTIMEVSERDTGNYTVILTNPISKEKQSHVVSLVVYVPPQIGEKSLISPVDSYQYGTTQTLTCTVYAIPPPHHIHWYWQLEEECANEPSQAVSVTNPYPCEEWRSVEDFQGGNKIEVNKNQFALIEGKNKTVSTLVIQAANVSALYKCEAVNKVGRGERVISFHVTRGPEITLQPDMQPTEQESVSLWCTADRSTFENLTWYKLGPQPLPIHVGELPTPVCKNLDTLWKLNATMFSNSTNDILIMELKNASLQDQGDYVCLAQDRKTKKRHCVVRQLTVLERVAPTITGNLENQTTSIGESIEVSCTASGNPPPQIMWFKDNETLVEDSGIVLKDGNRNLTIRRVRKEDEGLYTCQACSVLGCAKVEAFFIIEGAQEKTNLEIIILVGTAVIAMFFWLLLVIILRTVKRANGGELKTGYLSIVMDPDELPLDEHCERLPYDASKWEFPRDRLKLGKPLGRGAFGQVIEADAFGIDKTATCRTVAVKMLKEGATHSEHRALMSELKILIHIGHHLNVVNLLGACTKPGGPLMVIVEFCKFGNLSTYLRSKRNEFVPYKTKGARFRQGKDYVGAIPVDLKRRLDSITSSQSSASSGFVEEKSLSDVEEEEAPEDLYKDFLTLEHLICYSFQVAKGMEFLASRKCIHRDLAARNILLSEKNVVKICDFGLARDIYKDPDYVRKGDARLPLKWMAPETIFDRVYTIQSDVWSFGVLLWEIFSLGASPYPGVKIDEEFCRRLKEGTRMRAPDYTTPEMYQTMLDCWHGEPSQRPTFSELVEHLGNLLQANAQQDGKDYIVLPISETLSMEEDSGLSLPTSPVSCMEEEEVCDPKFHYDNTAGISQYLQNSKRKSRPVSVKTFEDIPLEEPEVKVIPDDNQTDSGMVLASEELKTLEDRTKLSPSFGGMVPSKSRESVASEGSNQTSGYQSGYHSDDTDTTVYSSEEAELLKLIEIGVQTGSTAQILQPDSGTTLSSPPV
pIC50: −log10 of the molar value.
quantity: pIC50

compound="c1ccc(Nc2ncccc2-c2ncnc(Nc3cccc(Cn4ccnn4)c3)n2)cc1 [Compound 1095]" recordedresult="> 6.02"
compound="c1ccc(CNc2nc3ccccc3n2-c2ncnc(Nc3cccc(Cn4ccnn4)c3)n2)nc1 [Compound 962]" recordedresult="> 6.08"
compound="COc1cc(Nc2ncnc(-c3cccnc3Nc3ccc(Oc4ccccc4)cc3)n2)cc(OC)c1OC [Compound 839]" recordedresult="< 5.06"
compound="CN(c1cccc(Cl)c1)c1ncnc(Nc2cc(Cl)c(Cl)c(Cl)c2)n1 [Compound 804]" recordedresult="< 4.96"

Now take the following compound into account.
State its pIC50: COc1ccc(Nc2ncnc(N(C)C3CCN(C)CC3)n2)cc1OC [Compound 861] < 4.90

====

molecular target: EGFR (Homo sapiens); construct: Kinases are expressed as either kinase domains or full length constructs; made in house; experiment: Kinase inhibition assay (33P transfer), EGFR; format: biochemical; details: Table 2, kinase inhibition class
Sequence (P00533 25-1210, species assumed): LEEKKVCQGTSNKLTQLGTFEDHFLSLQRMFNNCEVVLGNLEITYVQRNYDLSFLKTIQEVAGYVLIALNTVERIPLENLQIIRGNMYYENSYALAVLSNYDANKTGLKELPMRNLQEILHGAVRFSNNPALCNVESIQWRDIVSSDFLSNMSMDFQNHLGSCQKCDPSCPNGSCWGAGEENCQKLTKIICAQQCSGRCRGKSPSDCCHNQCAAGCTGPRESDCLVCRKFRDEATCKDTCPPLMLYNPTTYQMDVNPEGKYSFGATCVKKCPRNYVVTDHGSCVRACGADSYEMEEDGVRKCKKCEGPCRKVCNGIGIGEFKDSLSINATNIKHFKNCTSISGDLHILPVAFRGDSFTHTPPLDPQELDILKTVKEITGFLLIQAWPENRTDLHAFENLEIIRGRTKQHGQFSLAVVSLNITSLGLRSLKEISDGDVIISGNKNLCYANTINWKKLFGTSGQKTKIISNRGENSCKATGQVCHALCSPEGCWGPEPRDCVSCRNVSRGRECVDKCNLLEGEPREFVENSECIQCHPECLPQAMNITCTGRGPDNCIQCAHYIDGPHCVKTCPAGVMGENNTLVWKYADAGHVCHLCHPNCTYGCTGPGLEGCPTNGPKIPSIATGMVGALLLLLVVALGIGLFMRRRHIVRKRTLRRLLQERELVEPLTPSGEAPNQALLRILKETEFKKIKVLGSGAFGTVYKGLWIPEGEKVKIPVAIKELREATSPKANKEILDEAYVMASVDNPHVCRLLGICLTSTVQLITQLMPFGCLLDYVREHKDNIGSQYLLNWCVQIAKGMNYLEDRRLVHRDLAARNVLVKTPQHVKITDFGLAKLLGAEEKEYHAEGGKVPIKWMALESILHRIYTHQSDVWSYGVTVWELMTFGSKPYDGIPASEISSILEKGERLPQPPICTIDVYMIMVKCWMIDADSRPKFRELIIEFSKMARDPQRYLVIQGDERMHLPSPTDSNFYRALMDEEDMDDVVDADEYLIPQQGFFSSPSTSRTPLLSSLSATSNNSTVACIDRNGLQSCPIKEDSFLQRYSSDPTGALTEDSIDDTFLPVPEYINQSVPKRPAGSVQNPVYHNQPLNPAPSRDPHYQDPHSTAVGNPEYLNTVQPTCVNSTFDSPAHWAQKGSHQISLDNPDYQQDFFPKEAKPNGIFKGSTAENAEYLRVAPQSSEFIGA
quantity: EGFR-1

compound="COc1cc(Nc2ncnc(Nc3ccc(O)c4ncccc34)n2)cc(OC)c1OC [Compound 699]" recordedresult="B (B>0.4 and <2.4 ug/mL)"
compound="COc1ccc(Nc2ncnc(Nc3cc(OC)c(OC)c(OC)c3)n2)cn1 [Compound 28]" recordedresult="B (B>0.4 and <2.4 ug/mL)"
compound="COc1cc(NC(=O)Nc2ncnc(-c3ccncc3)n2)cc(OC)c1OC [Compound 1118]" recordedresult="B (B>0.4 and <2.4 ug/mL)"

====

A short record of IC50 observed with Tek (Homo sapiens, UniProt Q02763) follows.
Sequence (Q02763 23-1124, species assumed): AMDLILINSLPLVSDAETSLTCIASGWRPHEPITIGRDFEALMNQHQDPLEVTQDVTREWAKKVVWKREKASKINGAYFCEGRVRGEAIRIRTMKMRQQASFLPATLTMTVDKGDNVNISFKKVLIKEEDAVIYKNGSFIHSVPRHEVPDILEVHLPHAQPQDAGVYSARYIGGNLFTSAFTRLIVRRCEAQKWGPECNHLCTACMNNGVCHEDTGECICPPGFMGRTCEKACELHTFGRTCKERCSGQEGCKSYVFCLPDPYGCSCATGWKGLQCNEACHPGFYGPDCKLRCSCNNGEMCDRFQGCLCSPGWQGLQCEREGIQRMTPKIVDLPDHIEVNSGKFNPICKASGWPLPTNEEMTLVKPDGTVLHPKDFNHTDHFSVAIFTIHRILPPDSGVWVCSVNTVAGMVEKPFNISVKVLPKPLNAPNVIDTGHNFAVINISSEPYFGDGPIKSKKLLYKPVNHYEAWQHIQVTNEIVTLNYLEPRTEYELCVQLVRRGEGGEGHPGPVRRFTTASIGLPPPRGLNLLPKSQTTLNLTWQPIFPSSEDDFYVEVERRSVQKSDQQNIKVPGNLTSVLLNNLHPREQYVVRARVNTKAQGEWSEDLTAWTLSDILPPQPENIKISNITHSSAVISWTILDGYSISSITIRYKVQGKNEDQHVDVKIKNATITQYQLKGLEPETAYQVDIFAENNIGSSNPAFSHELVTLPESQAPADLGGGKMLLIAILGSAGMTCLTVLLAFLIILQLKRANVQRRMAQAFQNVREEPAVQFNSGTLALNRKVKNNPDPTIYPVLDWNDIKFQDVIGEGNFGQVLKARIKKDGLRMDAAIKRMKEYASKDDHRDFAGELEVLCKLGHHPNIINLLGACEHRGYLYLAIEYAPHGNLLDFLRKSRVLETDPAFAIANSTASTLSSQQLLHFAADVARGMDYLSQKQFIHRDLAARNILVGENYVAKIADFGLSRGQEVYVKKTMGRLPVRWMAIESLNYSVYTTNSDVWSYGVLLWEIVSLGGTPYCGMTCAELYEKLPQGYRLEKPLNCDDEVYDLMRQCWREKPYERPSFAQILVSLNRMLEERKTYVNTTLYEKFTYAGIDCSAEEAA

samplesmiles=CC(C)(C)c1cc(Nc2ncnc(Nc3cccc(CC(=O)O)c3)n2)[nH]n1 recordedresult="> 12.2 µM"
samplesmiles=COc1cc(Nc2ncnc(-n3c(Nc4cccc(C(N)=O)c4)nc4ccccc43)n2)cc(OC)c1OC recordedresult="6.83 to 8.78 µM"
samplesmiles=COc1ccc(Nc2nc3ccccc3n2-c2ncnc(Nc3cc(OC)c(OC)c(OC)c3)n2)cc1OC recordedresult="> 8.5 µM"
samplesmiles=COc1cc(Nc2ncnc(N3CCCc4ccc(C(F)(F)F)cc43)n2)cc(OC)c1OC recordedresult="7.58 to 9.75 µM"
samplesmiles=NC(=O)c1ccc(Nc2ncnc(-n3c(N)nc4ccccc43)n2)cc1 recordedresult="1.15 to 6.93 µM"

State its IC50: "COc1cc(Nc2ncnc(-n3c(Nc4ccccc4)nc4ccccc43)n2)cc(OC)c1OC" > 9.58 µM

State its IC50: "COc1cc(Nc2nc3ccccc3n2-c2ncnc(Nc3cc(OC)c(OC)c(OC)c3)n2)cc(OC)c1" > 8.5 µM
